# assay-system: human DGKα (Homo sapiens (Human))
# Sequence (P23743 whole entry, looked up): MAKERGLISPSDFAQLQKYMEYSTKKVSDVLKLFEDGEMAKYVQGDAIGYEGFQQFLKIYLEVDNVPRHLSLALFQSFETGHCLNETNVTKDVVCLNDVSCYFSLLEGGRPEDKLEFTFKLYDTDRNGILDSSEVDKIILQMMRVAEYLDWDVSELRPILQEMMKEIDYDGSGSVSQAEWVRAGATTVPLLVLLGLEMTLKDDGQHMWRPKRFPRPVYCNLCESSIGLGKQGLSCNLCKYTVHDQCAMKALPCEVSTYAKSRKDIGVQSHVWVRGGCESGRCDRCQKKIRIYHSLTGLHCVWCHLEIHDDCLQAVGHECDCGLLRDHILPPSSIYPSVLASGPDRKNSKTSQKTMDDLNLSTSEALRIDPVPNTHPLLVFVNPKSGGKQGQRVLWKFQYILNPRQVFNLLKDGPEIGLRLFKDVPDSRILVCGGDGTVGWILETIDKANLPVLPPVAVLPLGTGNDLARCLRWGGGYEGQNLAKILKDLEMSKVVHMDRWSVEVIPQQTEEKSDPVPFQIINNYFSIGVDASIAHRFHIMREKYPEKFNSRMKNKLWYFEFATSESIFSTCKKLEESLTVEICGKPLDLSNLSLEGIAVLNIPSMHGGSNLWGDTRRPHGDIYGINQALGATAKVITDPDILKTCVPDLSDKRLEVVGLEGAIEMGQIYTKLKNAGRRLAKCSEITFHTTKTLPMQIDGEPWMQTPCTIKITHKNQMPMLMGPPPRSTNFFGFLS
# experimental-protocol: DGKα LIPGLO assay (extruded liposome substrate, ADP-Glo luminescence)
# Format: biochemical
# recorded-conditions: liposome assay; read-out: DGK alpha LIPGLO IC50
A collection of compounds and their measured pIC50
# pIC50 = -log10(concentration in molar units)

Please review the entries below; each comes with its answer.
*Q* Return pIC50 for the following compound: CC[C@@H]1CN(c2nc(=O)n(C)c3ccc(C#N)nc23)[C@@H](C)CN1C(C)c1ccc(OCC2CC2)cc1 (single isomer, unassigned) [Example 67]
*A* 6.68

*Q* Return pIC50 for the following compound: [2H]C([2H])([2H])Oc1ccc(C(C)N2C[C@H](CC)N(c3nc(=O)n(C)c4ccc(C#N)nc34)C[C@H]2CC)cc1 (single isomer, unassigned)
*A* 7.54

*Q* Return pIC50 for the following compound: `C[C@@H]1CN(c2nc(=O)n(C)c3ccc(C#N)nc23)[C@@H](C)CN1Cc1ccc2c(c1)OC(F)(F)O2`
*A* 5.35

*Q* Return pIC50 for the following compound: CC[C@@H]1CN(c2nc(=O)n(C)c3ccc(C#N)nc23)[C@@H](C)CN1C(c1ccc(F)cc1)c1ccc(C2CC2)cn1 (single isomer, unassigned) [Example 76]
*A* 7.10

*Q* Return pIC50 for the following compound: CC(c1ccc(F)c(F)c1)N1C[C@H](C)N(c2nc(=O)n(C)c3ccc(C#N)nc23)C[C@H]1C (single isomer, unassigned) [Example 148]
*A* 6.59

*Q* Return pIC50 for the following compound: COC[C@@H]1CN(c2nc(=O)n(C)c3ccc(C#N)nc23)[C@@H](C)CN1C(c1ccc(F)cc1)c1ccc(C(F)(F)F)cn1 (single isomer, unassigned) [Example 179]
*A* 7.09

*Q* Return pIC50 for the following compound: CC[C@@H]1CN(c2nc(=O)n(C)c3ccc(C#N)nc23)[C@@H](C)CN1C(C)c1ccc(OC(F)(F)F)cc1 (single isomer, unassigned) [Example 49]
*A* 6.41

*Q* Return pIC50 for the following compound: CC[C@@H]1CN(c2nc(=O)n(C)c3ccc(C#N)nc23)[C@@H](C)CN1C(C)c1ccc(OC(C)C)cc1 (single isomer, unassigned) [Example 53]
*A* 6.20

***
*Q* Return pIC50 for the following compound: CC[C@@H]1CN(c2nc(=O)n(C)c3ccc(C#N)nc23)[C@@H](C)CN1C(C)c1ccc(C2CC2)cc1F (single isomer, unassigned) [Example 92]
*A* 6.34

*Q* Return pIC50 for the following compound: CC(c1ccc2c(c1)OC(F)(F)O2)N1C[C@H](C)N(c2nc(=O)n(C)c3ccc(C#N)nc23)C[C@H]1C (single isomer, unassigned) [Example 166]
*A* 5.27

*Q* Return pIC50 for the following compound: CC[C@@H]1CN(c2nc(=O)n(C)c3ccc(C#N)nc23)[C@@H](C)CN1C(c1ccc(F)cc1)c1nc(C2CC2)no1 (some centres unmarked) [Example 113]
*A* 7.33

---

# assay-system: human DGKζ (Homo sapiens (Human))
# Sequence (Q13574 other isoform, or with tags, fused parts or gaps): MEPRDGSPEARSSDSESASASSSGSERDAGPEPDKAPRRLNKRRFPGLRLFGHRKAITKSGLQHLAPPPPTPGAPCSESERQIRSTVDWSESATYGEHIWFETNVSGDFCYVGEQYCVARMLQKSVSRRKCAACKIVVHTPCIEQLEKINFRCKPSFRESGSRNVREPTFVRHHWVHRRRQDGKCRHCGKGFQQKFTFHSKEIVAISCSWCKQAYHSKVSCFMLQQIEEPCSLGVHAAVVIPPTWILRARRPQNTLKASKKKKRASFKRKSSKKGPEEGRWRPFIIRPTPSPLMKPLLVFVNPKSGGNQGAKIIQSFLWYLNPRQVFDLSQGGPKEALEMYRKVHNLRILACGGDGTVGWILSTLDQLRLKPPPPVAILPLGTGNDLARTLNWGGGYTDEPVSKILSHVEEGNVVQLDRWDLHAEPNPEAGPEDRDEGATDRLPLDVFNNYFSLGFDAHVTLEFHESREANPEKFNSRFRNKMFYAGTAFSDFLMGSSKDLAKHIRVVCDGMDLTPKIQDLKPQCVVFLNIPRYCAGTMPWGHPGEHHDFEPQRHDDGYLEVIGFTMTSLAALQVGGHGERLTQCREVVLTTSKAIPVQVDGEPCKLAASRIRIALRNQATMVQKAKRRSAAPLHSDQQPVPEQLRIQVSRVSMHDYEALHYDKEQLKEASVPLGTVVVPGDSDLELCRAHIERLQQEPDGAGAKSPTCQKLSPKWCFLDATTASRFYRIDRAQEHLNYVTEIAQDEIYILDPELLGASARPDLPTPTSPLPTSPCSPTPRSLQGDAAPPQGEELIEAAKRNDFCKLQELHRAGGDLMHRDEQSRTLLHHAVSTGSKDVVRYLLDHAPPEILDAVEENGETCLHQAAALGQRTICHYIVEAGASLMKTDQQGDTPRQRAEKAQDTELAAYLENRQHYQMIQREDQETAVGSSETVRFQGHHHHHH
# experimental-protocol: DGKζ LIPGLO assay (extruded liposome substrate, ADP-Glo luminescence)
# Format: biochemical
# recorded-conditions: liposome assay; read-out: DGK zeta LIPGLO IC50
A collection of compounds and their measured pIC50
# pIC50 = -log10(concentration in molar units)

Please review the entries below; each comes with its answer.
*Q* Return pIC50 for the following compound: CC(c1ccc(OC(F)(F)F)cc1F)N1C[C@H](C)N(c2nc(=O)n(C)c3ccc(C#N)nc23)C[C@H]1C (single isomer, unassigned) [Example 143]
*A* 5.67

*Q* Return pIC50 for the following compound: CCC(c1ccc(OC(F)(F)F)cc1)N1C[C@H](C)N(c2nc(=O)n(C)c3ccc(C#N)nc23)C[C@H]1C (single isomer, unassigned) [Example 155]
*A* 6.12

***
*Q* Return pIC50 for the following compound: CC[C@H]1CN(C(C)c2ccc(N3CCCC3=O)cc2)[C@H](CC)CN1c1nc(=O)n(C)c2ccc(C#N)nc12 (stereo partly drawn) [Example 230]
*A* 6.89

*Q* Return pIC50 for the following compound: CC(c1ccc(F)cc1)N1C[C@H](C)N(c2nc(=O)n(C)c3ccc(C#N)nc23)C[C@H]1C (single isomer, unassigned) [Example 129]
*A* 5.81

*Q* Return pIC50 for the following compound: CC[C@H]1CN(C(c2ccc(OC(F)(F)F)cc2)c2cc(C3CC3)on2)[C@H](CC)CN1c1nc(=O)n(C)c2ccc(C#N)nc12 (single isomer, unassigned) [Example 43]
*A* 6.89

*Q* Return pIC50 for the following compound: CC[C@H]1CN(C(C)c2ccc(CN3CCN(C(C)=O)CC3)cc2)[C@H](CC)CN1c1nc(=O)n(C)c2ccc(C#N)nc12 (stereo partly drawn) [Example 283]
*A* 5.61
